TARGET: UniProt:O00519
Sequence (O00519 whole entry): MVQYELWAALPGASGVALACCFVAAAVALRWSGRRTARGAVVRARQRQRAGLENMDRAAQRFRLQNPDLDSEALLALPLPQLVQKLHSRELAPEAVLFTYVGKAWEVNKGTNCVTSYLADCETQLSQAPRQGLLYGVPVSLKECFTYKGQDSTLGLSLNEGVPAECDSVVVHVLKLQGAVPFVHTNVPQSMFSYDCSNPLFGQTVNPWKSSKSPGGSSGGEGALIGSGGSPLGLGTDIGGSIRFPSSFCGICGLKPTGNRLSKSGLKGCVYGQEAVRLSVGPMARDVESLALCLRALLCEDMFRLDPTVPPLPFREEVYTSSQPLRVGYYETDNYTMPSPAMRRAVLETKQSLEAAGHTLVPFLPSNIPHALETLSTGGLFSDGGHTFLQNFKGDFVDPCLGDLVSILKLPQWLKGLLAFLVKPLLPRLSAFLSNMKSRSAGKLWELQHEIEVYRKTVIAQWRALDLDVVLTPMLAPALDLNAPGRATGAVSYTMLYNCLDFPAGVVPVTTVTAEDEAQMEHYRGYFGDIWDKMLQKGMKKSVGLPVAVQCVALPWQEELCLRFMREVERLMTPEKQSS
ASSAY: Inhibition of human recombinant FAAH expressed in COS7 cells using anandamide as substrate
Format: cell-based, COS-7
REPORTED_CONDITIONS: read-out: IC50
What pIC50 was measured for each of the following?
Please treat pIC50 as minus the base-10 logarithm of the molar concentration.

Incoming: # lookup: pIC50 of O=C(N1CCN(Cc2cccc(Oc3ccccc3)c2)CC1)n1nnc2ccccc21
Outgoing: 7.05

Incoming: # lookup: pIC50 of O=C(N1CCC(C(O)(c2ccc3c(c2)OCO3)c2ccc3c(c2)OCO3)CC1)n1cncn1
Outgoing: 5.79

Incoming: # lookup: pIC50 of O=C(N1CCN(c2ccccc2)CC1)n1nnc2cccnc21
Outgoing: 7.96

Incoming: # lookup: pIC50 of CCOC(=O)N1CCN(C(=O)n2nnc3cccnc32)CC1
Outgoing: 6.64

Incoming: # lookup: pIC50 of O=C(N1CCN(C(c2ccccc2)c2ccccc2)CC1)n1nnc2cccnc21
Outgoing: 6.01

Incoming: # lookup: pIC50 of O=C(N1CCN(Cc2ccc(Oc3ccccc3)cc2)CC1)n1ccnc1
Outgoing: 8.47
